molecular target: UniProt:P43490; test: Human recombinant enzyme assay (NMN fluorescence biochemical assay, activation of NAMPT); conditions: Table A; human recombinant NAMPT, NMN formation, 60 min; read-out: EC50 Human
Sequence (P43490 whole entry): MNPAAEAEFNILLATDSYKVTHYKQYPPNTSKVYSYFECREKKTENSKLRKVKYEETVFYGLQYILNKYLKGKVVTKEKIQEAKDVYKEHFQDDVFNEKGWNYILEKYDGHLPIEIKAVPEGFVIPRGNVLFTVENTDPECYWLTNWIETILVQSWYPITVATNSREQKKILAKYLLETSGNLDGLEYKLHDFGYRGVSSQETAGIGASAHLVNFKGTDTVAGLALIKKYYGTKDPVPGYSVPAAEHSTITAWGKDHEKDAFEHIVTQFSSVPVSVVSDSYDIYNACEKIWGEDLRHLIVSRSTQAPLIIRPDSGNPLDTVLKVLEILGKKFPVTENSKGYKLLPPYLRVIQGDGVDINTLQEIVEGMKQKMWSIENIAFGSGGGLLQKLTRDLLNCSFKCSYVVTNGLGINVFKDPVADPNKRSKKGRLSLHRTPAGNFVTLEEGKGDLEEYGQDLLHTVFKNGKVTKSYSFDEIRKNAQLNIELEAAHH

[
  {
    "compound": "O=C(NCc1ccc(Cl)cc1)NC1CC2(CC(CNC(=O)C3CCCC3)C2)C1 (centres unmarked) [Compound 251]",
    "readout-unit": "µM",
    "EC50": 6.1
  },
  {
    "compound": "COc1ccc(CNC(=O)NC2CC3(C2)CC(C(=O)N2CCN(Cc4ccncc4)CC2)C3)cc1 (centres unmarked) [Compound 124]",
    "readout-unit": "µM",
    "EC50": 24.9
  },
  {
    "compound": "COc1ccc(CNC(=O)NC2CC3(C2)CC(C(=O)N2CCCc4cc(C(F)(F)F)ccc42)C3)cc1 (centres unmarked) [Compound 104]",
    "readout-unit": "µM",
    "EC50": 10.7
  },
  {
    "compound": "COc1ccc(CNC(=O)NC2CC3(C2)CN(C(=O)c2ccc(C#N)cc2)C3)cc1 [Compound 156]",
    "readout-unit": "µM",
    "EC50": 45.8
  },
  {
    "compound": "NC(=O)c1ccc(CNC(=O)NC2CC3(C2)CN(C(=O)c2cccc(N4CCCC4)c2)C3)cc1 [Compound 222]",
    "readout-unit": "µM",
    "EC50": 28.6
  },
  {
    "compound": "COc1ccc(CNC(=O)NC2CC3(C2)CN(C(=O)c2ccccc2)C3)cc1 [Compound 141]",
    "readout-unit": "µM",
    "EC50": 49.4
  },
  {
    "compound": "NC(=O)c1ccc(CNC(=O)NC2CC3(C2)CN(C(=O)c2cncc(N4CCCC4)c2)C3)cc1 [Compound 223]",
    "readout-unit": "µM",
    "EC50": 38.5
  },
  {
    "compound": "COc1ccc(CNC(=O)NC2CC3(C2)CC(C(=O)N2CCCc4ccc(F)cc42)C3)cc1 (centres unmarked) [Compound 106]",
    "readout-unit": "µM",
    "EC50": 1.8
  }
]
